For each record, write down the corresponding inhibition.
Molecular target: Discoidin domain-containing receptor 2 (Homo sapiens);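 further: reported values are mean percent inhibition of DDR2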
Settings: at 0.1 µM
Give a bare numeral; the unit % is implied.

inhibition recorded for this compound, CS(=O)(=O)CCNCc1ccc(-c2ccc3ncnc(Nc4ccc(OCc5cccc(C(F)(F)F)c5)cc4)c3c2)o1 , is 0.91

For reference, reported inhibition for COc1ccc(Nc2ncc(-c3ccccc3)o2)cc1OC stands at -0.12

Fc1cccc(COc2ccc(Nc3ncncc3C#Cc3ccccc3)cc2Cl)c1 yielded inhibition of 1.28

Entry CCCNc1cccc(-n2ncc3c(N/N=C/c4ccncc4)ncnc32)c1 — recorded inhibition = 1.93

The compound CC1(C)CC(n2cnc(-c3ccc(F)cc3)c2-c2ccnc(N)n2)CC(C)(C)N1 showed inhibition equal to 1.3

Briefly, inhibition measured for CCS(=O)(=O)c1ccc(OC)c(Nc2ncc(-c3cccc(C(C)=O)c3)o2)c1 : 3.31

Entry CC(C)c1ccc(-c2cc(-c3c[nH]nc3-c3ccccn3)ccn2)cc1 , inhibition reported as 3.76

According to the records, this compound COc1cc2c(cc1Nc1nc(Nc3cccc(F)c3C(N)=O)c3cc[nH]c3n1)N(C(=O)CN1CCN(C(C)C)CC1)CC2 displays inhibition of -1.78
